system: isogenic CHO cell line with low RFC expression; assay: Folate competition, IC50 in CHO cells with low RFC expression; type: cell-based; conditions: Cricetulus griseus, folic acid free RPMI, 10 vol. % dialyzed FBS, 25 nM 5-formyl THF

{"molecule": "C#Cc1ccc(Cn2ccc3c4c(N)nc(N)nc4ccc32)cc1 [Compound 1]", "qualifier": "<", "IC50, nM": 0.002}
{"molecule": "CN(Cc1cnc2nc(N)nc(N)c2n1)c1ccc(C(=O)N[C@@H](CCC(=O)O)C(=O)O)cc1 [Methotrexate]", "qualifier": "=", "IC50, nM": 4000}
{"molecule": "Nc1nc2[nH]cc(CCc3ccc(C(=O)N[C@@H](CCC(=O)O)C(=O)O)cc3)c2c(=O)[nH]1 [Pemetrexed]", "qualifier": "=", "IC50, nM": 800}
